The reported numbers originate from patent US8101761B2.

Molecular target: human AR (androgen receptor) (Homo sapiens)
Sequence (P10275 whole entry): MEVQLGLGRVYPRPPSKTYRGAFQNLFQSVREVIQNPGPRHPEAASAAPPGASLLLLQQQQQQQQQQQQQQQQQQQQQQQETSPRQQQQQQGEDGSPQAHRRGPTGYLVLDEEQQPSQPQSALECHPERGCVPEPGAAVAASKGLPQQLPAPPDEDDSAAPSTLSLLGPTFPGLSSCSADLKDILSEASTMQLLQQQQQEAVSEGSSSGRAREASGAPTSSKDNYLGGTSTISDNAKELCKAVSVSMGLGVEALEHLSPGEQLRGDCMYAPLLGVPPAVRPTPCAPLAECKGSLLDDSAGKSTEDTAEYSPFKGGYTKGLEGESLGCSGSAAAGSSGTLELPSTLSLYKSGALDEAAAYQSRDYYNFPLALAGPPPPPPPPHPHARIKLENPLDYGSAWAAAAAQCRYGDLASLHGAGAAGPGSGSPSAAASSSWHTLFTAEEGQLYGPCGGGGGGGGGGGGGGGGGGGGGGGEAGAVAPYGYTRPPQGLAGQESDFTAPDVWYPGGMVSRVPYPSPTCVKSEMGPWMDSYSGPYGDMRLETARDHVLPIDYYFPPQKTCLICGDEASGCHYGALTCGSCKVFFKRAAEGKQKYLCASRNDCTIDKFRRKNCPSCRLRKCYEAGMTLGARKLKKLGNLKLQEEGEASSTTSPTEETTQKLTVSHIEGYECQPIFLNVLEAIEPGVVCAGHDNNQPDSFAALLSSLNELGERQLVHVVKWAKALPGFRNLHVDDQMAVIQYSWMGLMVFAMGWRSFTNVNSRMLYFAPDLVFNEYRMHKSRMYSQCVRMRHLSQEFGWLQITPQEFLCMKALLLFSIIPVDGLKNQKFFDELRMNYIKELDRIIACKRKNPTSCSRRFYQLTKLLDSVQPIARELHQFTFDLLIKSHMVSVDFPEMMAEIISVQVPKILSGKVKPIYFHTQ
Test: Nuclear hormone receptor competition binding assay, AR
Conditions: HEK293 lysate overexpressing human AR, [3H]-methyltrienolone; mean of n=7
pKi: −log10 of the molar value.
Value Type: pKi

Ask: Look up pKi: CC/C(=C1\c2ccc(F)cc2OCc2ncccc21)c1cccc(NS(C)(=O)=O)c1
Reply: ~8.17
